# System: MCF7
# test: Antiproliferative activity against human MCF7 cells after 20 hrs by microculture tetrazolium assay
# Assay type: functional
# run_parameters: MCF7, 20 h, read-out: ED50 (the source's name)
property_measured: pEC50
Give bare numbers, as −log10 of the molar value.

Provide the documented pEC50 with MCF7 as the system for "CN[C@H](C(=O)N[C@H](C(=O)N(C)[C@H](/C=C(\C)C(=O)O)C(C)C)C(C)(C)C)C(C)(C)c1cn(C)c2ccccc12"
9.30
